Reported values of cAMP EC50 (nM) Data Set 2 for individual entries
Biological target: human cannabinoid receptor type 1 (CB1) (human, UniProt P21554 1-472)
Sequence (P21554 whole entry): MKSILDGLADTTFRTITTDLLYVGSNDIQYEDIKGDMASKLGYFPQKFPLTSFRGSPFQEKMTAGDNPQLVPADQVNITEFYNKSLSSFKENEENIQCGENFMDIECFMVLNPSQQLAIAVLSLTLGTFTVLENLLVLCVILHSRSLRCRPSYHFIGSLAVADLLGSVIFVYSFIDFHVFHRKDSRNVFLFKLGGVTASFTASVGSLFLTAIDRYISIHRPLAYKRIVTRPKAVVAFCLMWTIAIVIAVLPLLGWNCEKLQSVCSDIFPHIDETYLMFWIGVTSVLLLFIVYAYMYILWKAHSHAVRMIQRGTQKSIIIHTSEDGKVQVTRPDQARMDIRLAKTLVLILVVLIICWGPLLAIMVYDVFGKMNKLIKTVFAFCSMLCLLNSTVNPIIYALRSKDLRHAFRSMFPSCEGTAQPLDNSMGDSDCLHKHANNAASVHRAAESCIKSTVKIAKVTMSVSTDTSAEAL
Assay: cell-based or functional assay
Metric name: cAMP EC50 (nM) Data Set 2

>>> reported_result("M4 mouse anti-huCB-1 antibody (antibody, V domains shown) VH: QVQLQQSGAELVRPGSSVKISCKASGYEFNYYWMNWVKQRPGQGLEWIGQIYPGDGDINYNGKFKGKATLTSDKSSSTVYMQLSSLTSEDSAVYFCSRSKGNPFAYWGQGTLVTVSA VL: DIQMTQTTSSLSASLGDSVTISCRASQGIRNYLNWYQQKPDGTVKLLIYYTSRLHSGVPPRFSGSGSGTDYSLTISNLEQEDLATYFCQQGNTLPYTFGGGTKLEIK")
320
>>> reported_result("M2 mouse anti-huCB-1 antibody (antibody, V domains shown) VH: EVQLQQSGPELVKPGTSVKISCKASGYTFTDYNMHWVKLGKSLEWIGYFYPDDGGSGYNQKFKGKATLTIDKSSSTAYMELHSLTSEDSAVYYCARGYGNSWGTYWGQGTLVTVSA VL: EIVLTQSPTTMAASPGEKITITCSASSRISSNYLYWYQQKPGFSPKLLIYRTSNLASGVPARFSGSGSGTSYSLTIGTMEAEDVATYYCQQGSSIPYTFGGGTKLEIK")
340
>>> reported_result("M1 mouse anti-huCB-1 antibody (antibody, V domains shown) VH: QVQLQQSGAELVRPGVSVKISCKGSGYTFTDHALHWVKQSQARSLEWIGIISTYYGDATYNQKFKGKATMTVDKSSSTAYMELARLTSEDSAFYYCARGGLYYGTNYRAMDYWGQGTSVTVSS VL: DIVMTQSQKFMSTSVGDRVSVTCKASQNVGSNVAWYQQKPGQSPKALIYSASYRYSGVPDRFTGSGSGTDFTLTISNVQSEDLAEYFCQQYNNYPFTFGSGTKLEIK")
170
>>> reported_result("M3 mouse anti-huCB-1 antibody (antibody, V domains shown) VH: QVQLQQSGPELVRPGVSVKISCKGSGYEFTDYALHWVKQSHAETLEWIGLITTYYGDTNYNQKFKGKATMTVDKSSSTAYMELARLTSEDSAIYYCARGGYYYGTDYRYFDVWGAGTTVTVSS VL: DILLTQSPAILSVSPGERVSFSCRASQSIGTNIHWYQQRPNGSPRLLIKYASESISGIPSRFSGSGSGSDFTLSINSVESEDIADYYCQQSITWPLTFGAGTKLELK")
290
>>> reported_result("M7 mouse anti-huCB-1 antibody (antibody, V domains shown) VH: EVQLQQPGAELVRPGASVKLSCKASSYTFTRYWMNWVKQRPEEGLEWIGMIDPYDSETHYNQKFKDKAILTVDKSSSTAYMQLSTLTSEDSAVYFCARSQPRYYAMDYWGQGTSVTVSS VL: DIQMSQSPSSLSASLGERVSLTCRASQEISGFLSWLQLRPDGTIKRLIYAASSLDSGVPKRFRGSWSGSDYSLTISSLESEDFADYYCLQYSSYPYTFGGGTKLEIK")
120
